Reported kon values for the following binders.
Biological target: T1, TP-51 peptide (human)
T1 construct: Synthetic peptide from Pepscan; also called synthetic TDP-43 peptide (TP-51)
T1 peptide: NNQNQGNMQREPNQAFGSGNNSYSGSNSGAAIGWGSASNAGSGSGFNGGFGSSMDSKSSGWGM
Test: SPR Biacore 8K, mAb captured by anti-human antibody, TP-51 injected, single-cycle kinetics

binder	unit-abbrev	kon
hACI-7069-633B12-Ab1_H32L24 (antibody, V domains shown) VH: EVQLVQSGAEVKKPGATVKISCKVSGFTFTEYSMHWVQQAPGKGLEWMGGINPQNAGTSYNQKFQGRVTITADTSTDTAYMELSSLRSEDTAVYYCARESWGQGTTVTVSS VL: DIVMTQSPLSLPVTPGEPASISCKSSQSLLHSDGKTYLNWLLQKPGQSPQRLIYLVSKLDSRVPDRFSGSGSGTDFTLKISRVEAEDVGVYYCWQGTHFPHTFGQGTKLEIK	M⁻¹ s⁻¹	64000
hACI-7069-633B12-Ab1_H33L27 (antibody, V domains shown) VH: EVQLVQSGAEVKKPGATVKISCKVSGFTFTEYSMHWVQQAPGKGLEWMGGINPNNGGTSYNQKFQGRVTITADTSTDTAYMELSSLRSEDTAVYYCARESWGQGTTVTVSS VL: DIVMTQSPLSLPVTPGEPASISCKSSQSLLHSDGKTYLNWLLQKPGQSPQRLIYLVSKLDSRVPDRFSGSGSGTDFTLKISRVEAEDVGVYYCFQGTHFPHTFGQGTKLEIK	M⁻¹ s⁻¹	150000
